Please respond with reported IC50 for every item in the list.
Test system: L1210
Experiment: In vitro cytotoxicity against L1210 cells was determined after 48 hours of incubation
Type: functional, Mus musculus
Settings: Mus musculus, L1210, 48 h; read-out: ID50 (the source's name)
One number for each entry, in µM.

// below: answered compounds
// field: IC50; key: CN(C)CCCNc1nccc2c1c1cnccc1n2C ; value = 1.2

Sure, the documented IC50 for Cc1cnc(NCCCN2CCCCC2)c2c3cnccc3n(C)c12 is 3.6

Per the record, CCN(CC)CCCN(C)c1ncc(C)c2c1c1cnccc1n2C has IC50 of 52

Sure, the documented IC50 for CCN(CC)CCCNc1nccc2c1c1cnccc1n2C is 1.6

For reference, reported IC50 for Cc1c[nH]c(NCCCN2CCN(C)CC2)c2c3cnccc3nc1-2 stands at 59

Quick note, IC50 for Cc1cnc(NCCCN2CCCC2)c2c3cnccc3n(C)c12 landed at 1.6

Record summary for CCCN(CCC)CCCNc1[nH]cc(C)c2nc3ccncc3c1-2 : reported IC50 = 3.3

Please fill in: IC50 reported for CCN(CC)CCCNc1ncc(C)c2c1c1cnccc1n2Cc1ccccc1 = 6.4

Fill in IC50 for each of the 4 compounds listed.
1. Cc1c[nH]c(NCCCN2CCOCC2)c2c3cnccc3nc1-2
2. CCNCCCNc1ncc(C)c2c1c1cnccc1n2C
3. Cc1cnc(NCCCN2CCOCC2)c2c3cnccc3n(C)c12
4. CCNCCCNc1[nH]cc(C)c2nc3ccncc3c1-2

Result block:
1: 19.2; 2: 3.8; 3: 5.3; 4: 17.4

====

Tested on: Calf thymus DNA
Test: Binding affinity for DNA by ethidium bromide displacement assay
Assay type: nucleic-acid assay
Settings: Bos taurus
Lab note: compare K aff with 20000 M⁻¹, writing label 1 if less and label 0 if equal or more.

Query block: Please indicate whether the reported K aff of CCN(CC)CCCNc1ncc(C)c2c1c1cnccc1n2Cc1ccccc1 is strictly below 20000 M⁻¹.
Result block: label 1

Query block: hey, is K aff for Cc1cnc(NCCCN(C)C)c2c3cnccc3n(C)c12 lower than 20000 M⁻¹ or not?
Result block: label 0

Query block: is_below(K aff, 20000 M⁻¹) for CCN(CC)CCCN(C)c1[nH]cc(C)c2nc3ccncc3c1-2 ?
Result block: label 1

Query block: Identify whether the compound CCNCCCNc1ncc(C)c2c1c1cnccc1n2C records K aff below 20000 M⁻¹.
Result block: label 0

Query block: Determine whether this compound shows K aff lower than 20000 M⁻¹ (ties excluded): CCN(CC)CCCCNc1[nH]cc(C)c2nc3ccncc3c1-2
Result block: label 0

Proceed to the following item.
Query block: Identify whether the compound CCN(CC)CCCCNc1ncc(C)c2c1c1cnccc1n2C records K aff below 20000 M⁻¹.
Result block: label 0

====

System: L1210
Test: In vitro cytotoxicity against L1210 cells was determined after 48 hours of incubation
Format: functional, Mus musculus
Conditions: Mus musculus, L1210, 48 h; read-out: ID50 (the source's name)
Can you tell me pIC50 for the items I'm about to list?
Give bare numbers, as −log10 of the molar value.

Examples from the recorded data:
// recorded pIC50 for CCN(CC)CCNc1[nH]cc(C)c2nc3ccncc3c1-2 : 4.71

Item: CCN(CC)CCCCNc1[nH]cc(C)c2nc3ccncc3c1-2 | pIC50: 4.92

// batch mode: one pIC50 value per listed entry
1. CCN(CC)CCCN(C)c1[nH]cc(C)c2nc3ccncc3c1-2
2. CCCN(CCC)CCCNc1ncc(C)c2c1c1cnccc1n2C
3. Cc1c[nH]c(NCCCN(C)C)c2c3cnccc3nc1-2

Result block:
1. 3.65
2. 5.07
3. 6.80

====

Exercise: for every item that follows, state its recorded CC50 at 48 h.
Test: In vitro cytotoxicity against L1210 cells was determined after 48 hours of incubation
Type: cell-based
Settings: mouse, read-out: ID50
Give bare numbers, in µM.

Field CC50 at 48 h (entry CCN(CC)CCCNc1ncc(C)c2c1c1cnccc1n2CC ) reads 1.4

Consider the additional compound presented here.
Reported CC50 at 48 h of CCN(CC)CCCNc1[nH]ccc2nc3ccncc3c1-2 : 46

====

For each of the compounds below, state its K aff.
Tested on: Calf thymus DNA
Test: Binding affinity for DNA by ethidium bromide displacement assay
Type: nucleic-acid assay
Details: Bos taurus
One number for each entry, in M⁻¹.

# count of solved cases: 5
Given item Cc1c[nH]c(NCCCN2CCOCC2)c2c3cnccc3nc1-2 , the value recorded as its K aff is 20000

Lookup result for CN(C)CCCNc1nccc2c1c1cnccc1n2C ; measured K aff: 20000

Entry CCNCCCNc1[nH]cc(C)c2nc3ccncc3c1-2 , K aff reported as 25000

# compound CCN(CC)CCCNc1[nH]ccc2nc3ccncc3c1-2 ; its K aff = 15000

Lookup result for CCN(CC)CCCNc1ncc(C)c2c1c1cnccc1n2C ; measured K aff: 40000

Batch: K aff for all items listed.
1. CCCN(CCC)CCCNc1[nH]cc(C)c2nc3ccncc3c1-2
2. Cc1c[nH]c(NCCCN(C)C)c2c3cnccc3nc1-2
3. CCN(CC)CCCN(C)c1ncc(C)c2c1c1cnccc1n2C
4. CCN(CC)CCCNc1nccc2c1c1cnccc1n2C
5. CCN(CC)CCNc1[nH]cc(C)c2nc3ccncc3c1-2
6. CCCN(CCC)CCCNc1ncc(C)c2c1c1cnccc1n2C
7. CCN(CC)CCCNc1ncc(C)c2c1c1cnccc1n2CC
8. Cc1cnc(NCCCN2CCOCC2)c2c3cnccc3n(C)c12

Result block:
1: 8000; 2: 20000; 3: 3000; 4: 17000; 5: 12000; 6: 16000; 7: 17000; 8: 30000

The compound listed as Cc1c[nH]c(NCCCN2CCN(C)CC2)c2c3cnccc3nc1-2 shows K aff equal to 27000
